Tested on: FTC-133 (Thyroid Gland Carcinoma)
procedure summary: combination Emax (second highest fraction inhibited in the dose matrix, 72 h); higher = more inhibition; extreme values may be limits of the assay
Think of 0.6 as a floor: if combination Emax stands on it or above, it is satisfied; beneath it, not satisfied.

CCN(CCO)CCCOc1ccc2c(Nc3cc(CC(=O)Nc4cccc(F)c4)[nH]n3)ncnc2c1 [AZD2811] + O=C(c1cc(Cc2n[nH]c(=O)c3ccccc23)ccc1F)N1CCN(C(=O)C2CC2)CC1 [Olaparib] (first compound max 1 µM, 7x7, partner max 10 µM) ... not satisfied

Ask: combination Emax >= 0.6 for CC1(C)CCC(CN2CCN(c3ccc(C(=O)NS(=O)(=O)c4ccc(NCC5CCOCC5)c([N+](=O)[O-])c4)c(Oc4cnc5[nH]ccc5c4)c3)CC2)=C(c2ccc(Cl)cc2)C1 [Venetoclax] + Cn1cnc2c(F)c(Nc3ccc(Br)cc3Cl)c(C(=O)NOCCO)cc21 [Selumetinib] (first compound max 1 µM, 7x7, partner max 3 µM) ?
Result: not satisfied

Ask: combination Emax >= 0.6 for COc1cccc2c1C(=O)c1c(O)c3c(c(O)c1C2=O)C[C@@](O)(C(=O)CO)C[C@@H]3O[C@H]1C[C@H](N)[C@H](O)[C@H](C)O1 [Doxorubicin] + Cc1cc2ncnn2cc1Nc1ncc2c(n1)n(C1CCOCC1)c(=O)n2C [AZD7648] (first compound max 1 µM, 7x7, partner max 10 µM) ?
Result: satisfied

Ask: combination Emax >= 0.6 for CC1(C)CCC(CN2CCN(c3ccc(C(=O)NS(=O)(=O)c4ccc(NCC5CCOCC5)c([N+](=O)[O-])c4)c(Oc4cnc5[nH]ccc5c4)c3)CC2)=C(c2ccc(Cl)cc2)C1 [Venetoclax] + COc1cc(Nc2ncc3c(n2)-c2ccc(Cl)cc2C(c2c(F)cccc2OC)=NC3)ccc1C(=O)O [Alisertib] (first compound max 1 µM, 7x7, partner max 10 µM) ?
Result: not satisfied

Ask: combination Emax >= 0.6 for Cc1c2c(nn1C)CSCc1cc(n(C)n1)CSc1cc(c3ccccc3c1)OCCCc1c(C(=O)O)n(C)c3c-2c(Cl)ccc13 [AZD5991] + Cn1cnc2c(F)c(Nc3ccc(Br)cc3Cl)c(C(=O)NOCCO)cc21 [Selumetinib] (first compound max 1 µM, 7x7, partner max 3 µM) ?
Result: satisfied

Ask: combination Emax >= 0.6 for CC(=O)c1c(C)c2cnc(Nc3ccc(N4CCNCC4)cn3)nc2n(C2CCCC2)c1=O [Palbociclib] + CN(CC[C@H](CSC1=CC=CC=C1)NC2=C(C=C(C=C2)S(=O)(=O)NC(=O)C3=CC=C(C=C3)N4CCC(CC4)[C@H](C5=CC=CC=C5C6=CC=C(C=C6)Cl)O)S(=O)(=O)C(F)(F)F)CCO [AZD4320] (first compound max 10 µM, 7x7, partner max 1 µM) ?
Result: not satisfied

Ask: combination Emax >= 0.6 for COc1cc2c(cc1OCCCCCOc1cc3c(cc1OC)C(=O)N1C=C(C)C[C@H]1C=N3)N=C[C@@H]1CC(C)=CN1C2=O [SG3199] + O=C(c1cc(Cc2n[nH]c(=O)c3ccccc23)ccc1F)N1CCN(C(=O)C2CC2)CC1 [Olaparib] (first compound max 0.001 µM, 7x7, partner max 10 µM) ?
Result: not satisfied

Ask: combination Emax >= 0.6 for Cc1c2c(nn1C)CSCc1cc(n(C)n1)CSc1cc(c3ccccc3c1)OCCCc1c(C(=O)O)n(C)c3c-2c(Cl)ccc13 [AZD5991] + Cc1cc2ncnn2cc1Nc1ncc2c(n1)n(C1CCOCC1)c(=O)n2C [AZD7648] (first compound max 1 µM, 7x7, partner max 10 µM) ?
Result: satisfied

Ask: combination Emax >= 0.6 for CC(=O)c1c(C)c2cnc(Nc3ccc(N4CCNCC4)cn3)nc2n(C2CCCC2)c1=O [Palbociclib] + Cn1cnc2c(F)c(Nc3ccc(Br)cc3Cl)c(C(=O)NOCCO)cc21 [Selumetinib] (first compound max 10 µM, 7x7, partner max 10 µM) ?
Result: not satisfied

Ask: combination Emax >= 0.6 for Cc1c2c(nn1C)CSCc1cc(n(C)n1)CSc1cc(c3ccccc3c1)OCCCc1c(C(=O)O)n(C)c3c-2c(Cl)ccc13 [AZD5991] + C[C@@H]1COCCN1C2=NC(=NC(=C2)C3(CC3)[S@](=N)(=O)C)C4=C5C=CNC5=NC=C4 [AZD6738] (first compound max 1 µM, 7x7, partner max 10 µM) ?
Result: satisfied

Ask: combination Emax >= 0.6 for Cc1c2c(nn1C)CSCc1cc(n(C)n1)CSc1cc(c3ccccc3c1)OCCCc1c(C(=O)O)n(C)c3c-2c(Cl)ccc13 [AZD5991] + CC1(C)CCC(CN2CCN(c3ccc(C(=O)NS(=O)(=O)c4ccc(NCC5CCOCC5)c([N+](=O)[O-])c4)c(Oc4cnc5[nH]ccc5c4)c3)CC2)=C(c2ccc(Cl)cc2)C1 [Venetoclax] (first compound max 1 µM, 7x7, partner max 1 µM) ?
Result: satisfied

Ask: combination Emax >= 0.6 for CN(CCO)CC[C@H](CSc1ccccc1)Nc1ccc(S(=O)(=O)NC(=O)c2ccc(N3CCC([C@@H](O)c4ccccc4-c4ccc(Cl)cc4)CC3)cc2)cc1S(=O)(=O)C(F)(F)F [AZD4320] + Cn1cnc2c(F)c(Nc3ccc(Br)cc3Cl)c(C(=O)NOCCO)cc21 [Selumetinib] (first compound max 1 µM, 7x7, partner max 3 µM) ?
Result: satisfied

Ask: combination Emax >= 0.6 for COc1nnc2ccc(N3CCC(c4ccc(OCCN5CCN(C)C(=O)[C@H]5C)cc4)CC3)nn12 [AZD5153] + C[C@@H]1COCCN1C2=NC(=NC(=C2)C3(CC3)[S@](=N)(=O)C)C4=C5C=CNC5=NC=C4 [AZD6738] (first compound max 1 µM, 7x7, partner max 10 µM) ?
Result: satisfied
